pKd values, listed per item
biological target: T1, human activated protein C (human, UniProt P04070 43-197; P04070 212-461); assay: Octet BLI, antibody on Protein A sensor, huAPC 3.13-50 nM, 1:1 model, 25 C, pH 7.4
T1 construct: In the plasma assays aPC is generated in human plasma with Protac; also called aPC; haPC
Would you please state pKd, meaning minus log10 of the concentration in mol/L, as a bare number?

HAPC-14-1 (antibody, V domains shown, Whole IgG, backbone hIgG1; also called HPAC14-1) VH: EVQLVESGGGLVQPGGSLRLSCAASGFTFSFYYLNWVRQAPGKGLEWVGDIRLKSNNYEKHYAESVKGRFTISRDDSKSITYLQMNSLRAEDTAVYYCAREGDYFDYWGQGTTVTVSS VL: DIQLTQSPSSLSASVGDRVTITCRASESVDSFGATFMHWYQQKPGKAPKLLIYLASWLGSGVPSRFSGSGSGTDFTLTISSLQPEDFATYYCQQNNEDPYTFGQGTKLEIK; 8.42

Next binder, pKd to be filled in.
Answer with the recorded pKd of HAPC-14-9 (antibody, V domains shown, Whole IgG, backbone hIgG1; also called HPAC 14-9) VH: EVQLVESGGGLVQPGGSLRLSCAASGFTFSFYYLNWVRQAPGKGLEWVGDIRLKKNNYEKHYAESVKGRFTISRDDSKSITYLQMNSLRAEDTAVYYCAREGDTFDYWGQGTTVTVSS VL: DIQLTQSPSSLSASVGDRVTITCRASESVDSFGATFMHWYQQKPGKAPKLLIYLASRLGSGVPSRFSGSGSGTDFTLTISSLQPEDFATYYCQQNNEDPYTFGQGTKLEIK only.
8.01
